B1: TPR t1 (parent)
chain: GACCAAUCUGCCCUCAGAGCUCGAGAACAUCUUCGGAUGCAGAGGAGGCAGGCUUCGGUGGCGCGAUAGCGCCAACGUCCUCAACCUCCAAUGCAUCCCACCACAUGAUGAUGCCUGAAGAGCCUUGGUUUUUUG

- Variants of: B1
- assay.protocol: polymerase ribozyme fitness, log enrichment relative to wild type (log ratio); higher = more active; in vitro selection for triplet polymerase activity
Each entry falls into one class according to its polymerase ribozyme fitness (log ratio); the ranges are bottom range = under -3, center range = from -3 up to -2, top range = -2 and over

Examples from the recorded data:
Query :: Dear colleague, I would appreciate it if you could identify the bin for A2C C79A U129C and reply at your convenience.
Result :: center range

Query :: Dear colleague, I would appreciate it if you could identify the bin for G17A G48A U87G G117A and reply at your convenience.
Result :: center range

Query :: Dear colleague, I would appreciate it if you could identify the bin for C99U C102G and reply at your convenience.
Result :: bottom range

Query :: Dear colleague, I would appreciate it if you could identify the bin for C4G C12A C40A C72U G77U and reply at your convenience.
Result :: bottom range

Query :: Dear colleague, I would appreciate it if you could identify the bin for C64U A118G U129G and reply at your convenience.
Result :: top range

Query :: Dear colleague, I would appreciate it if you could identify the bin for C34G G61U C64U C99A G120A A121G and reply at your convenience.
Result :: bottom range

Query :: Dear colleague, I would appreciate it if you could identify the bin for A5U C40A C115G G120A and reply at your convenience.
Result :: bottom range

Query :: Dear colleague, I would appreciate it if you could identify the bin for C40G A43U U112G A119U U126A and reply at your convenience.
Result :: bottom range

Query :: Dear colleague, I would appreciate it if you could identify the bin for C11G C15A and reply at your convenience.
Result :: top range

Query :: Dear colleague, I would appreciate it if you could identify the bin for G42A G63A A83U A121U and reply at your convenience.
Result :: bottom range

New cases:
Query :: Dear colleague, I would appreciate it if you could identify the bin for C15A C28G G36A C40U G110C U112C C115A G117U G120A and reply at your convenience.
Result :: bottom range

The reported measurements were obtained from the RNAGym collection of RNA variant scans (doi:10.1073/pnas.2313332121).
